protocol-text: Solubility Assay (saturation, shaker 24 hours, supernatant analysed by HPLC)
condition-info: ethanol, 25 °C, organic solvent or mixture, thermodynamic from solid
measurement-type: solubility at 24 h (µg/mL)
Return type: number; implicit unit µg/mL.

Task: Which solubility at 24 h is reported for this molecule? O=C(NCC(F)F)c1ccc(-n2[nH]c3c(nnc4c(F)cccc43)c2=O)cc1 [None (free acid)]
Output: 2100
